method description: Antioxidant activity assessed as superoxide oxide free radical scavenging activity at 2 uM
Type: physicochemical
parameter: Activity (%)

Recorded Activity, per entry:
COc1cc(/C=C/C(=O)C(=Cc2ccccc2O)C(=O)/C=C/c2ccc(O)c(OC)c2)ccc1O: 34
COc1cc(C=C(C(=O)/C=C/c2ccc(O)c(OC)c2)C(=O)/C=C/c2ccc(O)c(OC)c2)ccc1O: 14.9
COc1cc(/C=C/c2cc(/C=C/c3ccc(O)c(OC)c3)n(C(N)=S)n2)ccc1O: 30.2

[I] COc1cc(/C=C/c2cc(/C=C/c3ccc(O)c(OC)c3)n(C(=O)c3ccncc3)n2)ccc1O
[II] COc1cc(/C=C/C(=O)C(=Cc2ccccc2)C(=O)/C=C/c2ccc(O)c(OC)c2)ccc1O
Select the item whose Activity value is smaller, choosing between I and II . Use the label to indicate which entry you chose.
II
